- Tested on: PANC-1
- MEASUREMENT DESCRIPTION: Inhibition of cells growth by colorimetric assay (SRB)
- STUDY CONDITIONS: read-out: PANC-1 LC50; PANC-1; SRB, 48 hours exposure
- Method: This form of the assay employs 96 well cell culture microplates of 9 mm diameter (Faircloth, 1988; Mosmann, 1983). Most of the cell lines are obtained from American Type Culture Collection (ATCC) derived from different human cancer types. […] The values for mean +/− SD of data from triplicate wells are calculated. Some parameters for cellular responses can be calculated: GI=growth inhibition, TGI=total growth inhibition (cytostatic effect) and LC=cell killing (cytotoxic effect).
MEASUREMENT NAME: CC50 (nM)
Kindly provide the numeric value in nM only, without the unit symbol.

Q. So what CC50 did COC1=C(C)C(=O)C2=C(C1=O)C1C3C4SCC(NC(C)=O)C(=O)OCC(c5c6c(c(C)c(OC(C)=O)c54)OCO6)N3C(O)C(C2)N1C (stereo not shown) get with PANC-1?
A. 3.42
